# Tested on: MCF7
# method summary: NCI tumour cell line growth inhibition, 48 h
Active and inactive are the calls of the source. No stated cut-off is given here; in the data, active = GI50 up to about 1.1 µM and inactive = higher.
Answer each item with its documented GI50.

Guide cases for GI50, answers given:
compound=O=C(OCc1ccccc1CN1CCOCC1)c1cccc(Br)c1 result_value="37 µM (inactive)"
compound="CC1(C)C2CC(=O)C1(C)C(OCc1ccccc1)C2 (stereo not given)" result_value="64.7 µM (inactive)"
compound=NCCc1ccc(S(=O)(=O)O)cc1[N+](=O)[O-] result_value="> 100 µM (inactive)"
compound="COC(=O)C1=C(C(=O)OC)N(c2ccc(OC)cc2[N+](=O)[O-])C(c2ccc(C)cc2)=CC1c1ccc(OC)cc1OC (stereo not given)" result_value="4.05 µM (inactive)"

// for each compound below, give its GI50
1. COc1c2c(cc3c1C(=O)c1c(O)cccc1C3=O)CC(O)CC2 (stereo not given)
2. CC1OC(OC2C(OC(=O)[C@]34CCC(C)(C)C[C@H]3C3=CC[C@@H]5[C@@]6(C)CC[C@H](OC7OC(C(=O)O)C(O)C(O)C7O)C(C)(C)[C@@H]6CC[C@@]5(C)[C@]3(C)C[C@H]4O)OCC(O)C2O)C(O)C(OC2OCC(O)(CO)C2O)C1OC1OCC(O)C(O)C1O (stereo not given in full)
3. O=C(/C=C(\C(=O)c1cccs1)c1cccs1)c1ccc(C(=O)/C=C(\C(=O)c2cccs2)c2cccs2)cc1
4. COC(=O)C1=CCC[C@H]2[C@@]1(COC(C)=O)CC[C@@H](C)[C@]2(C)CC(=O)c1ccoc1
5. Nc1ccccc1N/C(=C\C(=O)C(Cl)(Cl)Cl)c1ccccc1

Ans:
1: > 100 µM (inactive); 2: 6.17 µM (inactive); 3: > 100 µM (inactive); 4: 16.1 µM (inactive); 5: 23.7 µM (inactive)

// for each compound below, give its GI50
1. COc1cc2c(/C=C3/C(=O)Nc4ccc(Cl)cc43)c(Cl)n(Cc3ccccc3)c2cc1C
2. CN1C/C(=C\c2ccccc2[N+](=O)[O-])C(=O)/C(=C/c2ccccc2[N+](=O)[O-])C1
3. C=CCn1c(-c2ccc(-c3cs/c(=N\N=O)n3CC=C)cc2)cs/c1=N\N=O
4. c1cc(-c2cnc(-c3ccc4c(c3)CCCO4)o2)ccn1
5. OC1=C2c3ccccc3NC2Oc2cc(F)ccc21 (stereo not given)

Ans:
1. 5 µM (inactive)
2. 0.408 µM (active)
3. > 100 µM (inactive)
4. 14.7 µM (inactive)
5. 24.9 µM (inactive)

// for each compound below, give its GI50
1. CC1=C(C2=C(C)C(=O)C(=O)c3cc(C)ccc32)c2ccc(C)cc2C(=O)C1=O
2. Oc1cc(-c2cccc(Cl)c2)nc2cc3c(cc12)OCO3
3. O=C(Nc1ccc2nc(-c3ccccc3)cn2c1)Oc1ccccc1
4. Cc1ccc(NC(=O)c2ccc(OP(=O)(O)Nc3ccc(C)cc3)cc2)cc1
5. CCC(=O)O[C@H]1CC[C@H]2[C@@H]3CCC4=CC(=O)C=C[C@]4(O)[C@H]3CC[C@]12C
6. CC1=NN(c2ccccc2)C(=O)C1C(=O)C(=O)Nc1ccc(C)cc1C (stereo not given)
7. c1ccc(C2SCC3=Nc4ccccc4CN32)cc1 (stereo not given)

Ans:
1: 0.218 µM (active); 2: 2.83 µM (inactive); 3: 35.4 µM (inactive); 4: > 100 µM (inactive); 5: 23.9 µM (inactive); 6: > 100 µM (inactive); 7: 26.9 µM (inactive)
